- System: Escherichia coli TOP10;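 also: peptides expressed intracellularly from a pBAD plasmid library in pooled LB shake-flask culture, induced with 0.3% L-arabinose, DNA abundance read by NGS, three biological replicates, DESeq2 with apeglm shrinkage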
- protocol_details: shrunken log2 fold change of peptide-encoding DNA abundance (4.5 h post-induction vs induction); higher = less antimicrobial activity (less host growth inhibition)
- recorded_conditions: time post-induction: 4.5 h; library: site-saturation at positions 5, 18, 19, 20
Readings of shrunken log2 fold change for the listed sequences
endpoint: shrunken log2 fold change

# entry_sequence, endpoint, test_result
data = [
    ("RRIRWRPPRLPRPRPRPYTSPRP", "shrunken log2 fold change", -0.0806),
    ("RRIRSRPPRLPRPRPRPLKQPRP", "shrunken log2 fold change", -0.0432),
    ("RRIRLRPPRLPRPRPRPNYRPRP", "shrunken log2 fold change", -0.571),
    ("RRIRKRPPRLPRPRPRPGKHPRP", "shrunken log2 fold change", 0.258),
    ("RRIRCRPPRLPRPRPRPNHPPRP", "shrunken log2 fold change", -0.153),
    ("RRIRYRPPRLPRPRPRPYNDPRP", "shrunken log2 fold change", -0.0979),
    ("RRIRYRPPRLPRPRPRPTTTPRP", "shrunken log2 fold change", -0.00235),
    ("RRIRERPPRLPRPRPRPEKPPRP", "shrunken log2 fold change", 3.84),
    ("RRIRRRPPRLPRPRPRPCFRPRP", "shrunken log2 fold change", -0.00559),
    ("RRIRHRPPRLPRPRPRPEAHPRP", "shrunken log2 fold change", -0.00101),
    ("RRIRFRPPRLPRPRPRPMCIPRP", "shrunken log2 fold change", -0.075),
    ("RRIRMRPPRLPRPRPRPYVPPRP", "shrunken log2 fold change", -0.584),
    ("RRIRPRPPRLPRPRPRPHNVPRP", "shrunken log2 fold change", -0.104),
    ("RRIRTRPPRLPRPRPRPGFQPRP", "shrunken log2 fold change", -0.0547),
    ("RRIRCRPPRLPRPRPRPQVPPRP", "shrunken log2 fold change", -0.106),
]
